Data credit: paper PMC4618636

# Tgt: CYP1A2 (Homo sapiens, UniProt P05177)
# Sequence (P05177 1-516): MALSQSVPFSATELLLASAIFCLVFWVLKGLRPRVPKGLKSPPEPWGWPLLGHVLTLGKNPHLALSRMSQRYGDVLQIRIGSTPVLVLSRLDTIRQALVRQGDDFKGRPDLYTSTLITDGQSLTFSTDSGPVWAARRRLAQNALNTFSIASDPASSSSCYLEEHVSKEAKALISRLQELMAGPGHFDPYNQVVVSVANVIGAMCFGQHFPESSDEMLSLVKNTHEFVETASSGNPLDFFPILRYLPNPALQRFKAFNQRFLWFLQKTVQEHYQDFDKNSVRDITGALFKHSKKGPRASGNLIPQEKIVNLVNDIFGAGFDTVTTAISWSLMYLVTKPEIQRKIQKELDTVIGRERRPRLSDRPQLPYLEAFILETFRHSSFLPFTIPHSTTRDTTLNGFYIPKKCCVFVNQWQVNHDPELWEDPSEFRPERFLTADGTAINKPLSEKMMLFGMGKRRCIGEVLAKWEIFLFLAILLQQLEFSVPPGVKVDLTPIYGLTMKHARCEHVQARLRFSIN
# Assay Explanation: CYP1A2 inhibition in upcyte hepatocytes over 24 h
# Assay type: in vitro ADME
# Assay Setup: probe phenacetin (5 μmol/L), percentage inhibition, CYP1A2, APAP, 1 mmol/L ABT, Donor 422A-03, 0–6 h, Lab 2
Observed Property: inhibition at 1 mmol/L (%)

Nn1nnc2ccccc21 ... 100

----------
# Tgt: UniProtKB P08684
# Sequence (P08684 whole entry): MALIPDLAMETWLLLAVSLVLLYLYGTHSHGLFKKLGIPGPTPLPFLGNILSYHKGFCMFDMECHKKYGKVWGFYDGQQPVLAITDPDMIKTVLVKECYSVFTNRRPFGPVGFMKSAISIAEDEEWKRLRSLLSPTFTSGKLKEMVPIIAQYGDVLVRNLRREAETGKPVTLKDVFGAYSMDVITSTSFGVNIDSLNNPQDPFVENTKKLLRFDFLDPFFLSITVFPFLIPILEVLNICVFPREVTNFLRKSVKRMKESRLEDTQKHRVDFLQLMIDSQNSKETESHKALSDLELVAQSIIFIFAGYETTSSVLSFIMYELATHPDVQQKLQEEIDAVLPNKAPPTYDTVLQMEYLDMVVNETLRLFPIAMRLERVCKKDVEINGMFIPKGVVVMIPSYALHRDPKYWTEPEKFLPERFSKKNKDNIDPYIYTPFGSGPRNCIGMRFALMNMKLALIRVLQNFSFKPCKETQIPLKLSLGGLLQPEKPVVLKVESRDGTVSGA
# Assay Explanation: in vitro
# Assay Setup: upcyte hepatocytes, probe midazolam (5 μmol/L), percentage inhibition, CYP3A4, 1′OH-MID +1′OH-MID-G, 1 mmol/L ABT, Donor 151-03, 24 h, Lab 2
Observed Property: inhibition at 24 h, 1 mmol/L (%)

Nn1nnc2ccccc21 [ABT, 1-aminobenzotriazole] ... 97

----------
# System: CYP3A4
# Assay Setup: upcyte Donor 422A-03; mean of two experiments
Label True when CYP3A4 RIS is at or above 0.5; otherwise label False.

NC(=O)N1c2ccccc2C=Cc2ccccc21 [Carbamazepine, carbamazepine] ... True
O=C1NC(=O)C(c2ccccc2)(c2ccccc2)N1 ... False
CCc1ccc(CCOc2ccc(CC3SC(=O)NC3=O)cc2)nc1 (stereo not shown) ... False
Cc1c(C)c2c(c(C)c1O)CCC(C)(COc1ccc(CC3SC(=O)NC3=O)cc1)O2 (stereo not shown) ... True
CCC1(c2ccccc2)C(=O)NC(=O)NC1=O ... True

----------
Item-by-item account of CYP3A4 Indmax
# Test system: CYP3A4
# Assay Setup: upcyte Donor 422A-03; mean from two experiments
Observed Property: CYP3A4 Indmax (fold)

NC(=O)N1c2ccccc2C=Cc2ccccc21 [Carbamazepine, carbamazepine] ... 4.0
CCc1ccc(CCOc2ccc(CC3SC(=O)NC3=O)cc2)nc1 (stereo not shown) [Pioglitazone, pioglitazone] ... 2.6
CCC1(c2ccccc2)C(=O)NC(=O)NC1=O [Phenobarbital, phenobarbital] ... 11.3
O=C1NC(=O)C(c2ccccc2)(c2ccccc2)N1 [Phenytoin, phenytoin] ... 15.8
Cc1c(C)c2c(c(C)c1O)CCC(C)(COc1ccc(CC3SC(=O)NC3=O)cc1)O2 (stereo not shown) [Troglitazone, troglitazone] ... 2.7

----------
# System: CYP2B6
# Assay Setup: upcyte Donor 653-03; mean from two experiments
Listing: CYP2B6 Indmax of selected molecules
Observed Property: CYP2B6 Indmax (fold)

O=C1NC(=O)C(c2ccccc2)(c2ccccc2)N1 [Phenytoin, phenytoin] ... 2.8
CCC1(c2ccccc2)C(=O)NC(=O)NC1=O [Phenobarbital, phenobarbital] ... 3.1
COc1ccc2[nH]c([S+]([O-])Cc3ncc(C)c(OC)c3C)nc2c1 (stereo not shown) [Omeprazole, omeprazole] ... 2.2
